Quick reference: inhibition of the listed items.
Molecular target: Bifunctional epoxide hydrolase 2 (Homo sapiens) (UniProt P34913)
Sequence (P34913 whole entry): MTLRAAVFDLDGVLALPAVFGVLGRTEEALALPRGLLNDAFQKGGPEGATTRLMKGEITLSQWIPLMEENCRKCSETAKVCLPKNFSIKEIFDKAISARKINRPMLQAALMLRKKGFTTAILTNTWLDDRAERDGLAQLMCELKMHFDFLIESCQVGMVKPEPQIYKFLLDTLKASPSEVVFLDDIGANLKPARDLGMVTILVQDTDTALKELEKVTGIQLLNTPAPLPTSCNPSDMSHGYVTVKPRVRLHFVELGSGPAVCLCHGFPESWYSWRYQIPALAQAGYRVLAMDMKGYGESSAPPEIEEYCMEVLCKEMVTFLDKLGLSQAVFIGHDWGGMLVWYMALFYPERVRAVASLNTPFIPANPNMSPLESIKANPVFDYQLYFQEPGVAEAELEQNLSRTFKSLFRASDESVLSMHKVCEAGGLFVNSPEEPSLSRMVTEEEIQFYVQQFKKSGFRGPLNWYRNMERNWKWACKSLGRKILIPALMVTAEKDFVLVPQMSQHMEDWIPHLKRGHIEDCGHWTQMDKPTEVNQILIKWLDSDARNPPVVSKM
Experiment: Inhibition of recombinant human sEH at 100 nM using PHOME as substrate measured after 15 mins by fluorescence assay relative to control

INPUT SMILES	TARGET	inhibition [%]
Nc1nc2ccc(NC(=O)NCc3ccc(Cl)cc3)cc2s1	Bifunctional epoxide hydrolase 2 (Homo sapiens) (UniProt P34913)	47
O=C(Cc1ccc(Cl)cc1)Nc1nc2ccc(N(CCN3CCOCC3)C(=O)Nc3ccc(Cl)cc3)cc2s1	Bifunctional epoxide hydrolase 2 (Homo sapiens) (UniProt P34913)	71.9
Nc1nc2ccc(N(CCN3CCCC3)C(=O)Nc3ccc(Cl)cc3)cc2s1	Bifunctional epoxide hydrolase 2 (Homo sapiens) (UniProt P34913)	48.3
O=C(Cc1ccc(F)cc1)Nc1nc2ccc(N(CCN3CCOCC3)C(=O)Nc3ccc(Cl)cc3)cc2s1	Bifunctional epoxide hydrolase 2 (Homo sapiens) (UniProt P34913)	74.9
Cc1cccc(NC(=O)N(CCN2CCOCC2)c2ccc3nc(N)sc3c2)c1	Bifunctional epoxide hydrolase 2 (Homo sapiens) (UniProt P34913)	61.7
CN1CCN(C(=O)Nc2nc3ccc(N(CCN4CCOCC4)C(=O)Nc4ccc(Cl)cc4)cc3s2)CC1	Bifunctional epoxide hydrolase 2 (Homo sapiens) (UniProt P34913)	64
COc1ccc(CC(=O)Nc2nc3ccc(N(CCN4CCOCC4)C(=O)Nc4ccc(Cl)cc4)cc3s2)cc1F	Bifunctional epoxide hydrolase 2 (Homo sapiens) (UniProt P34913)	58.1
CN1CCN(CCN(C(=O)Nc2ccc(Cl)cc2)c2ccc3nc(N)sc3c2)CC1	Bifunctional epoxide hydrolase 2 (Homo sapiens) (UniProt P34913)	45.9
O=C(NCc1ccc(Cl)cc1)Nc1nc2ccc([N+](=O)[O-])cc2s1	Bifunctional epoxide hydrolase 2 (Homo sapiens) (UniProt P34913)	10.9
